System: EPHB6;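 further: KINOMEscan kinase panel screen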
Conditions: concentration: 1 μM,replicates: in singlicate; n = 1
// classify: if (%Inh < 60%) met else not met

- COMPOUND: "CCOC(=O)N1CCC(n2cnc(-c3ccc(F)cc3)c2-c2ccnc(N)n2)CC1"
  GROUP_LABEL: "met"
- COMPOUND: "O=C(NOCC1CC1)c1cc(Br)c(F)c(F)c1Nc1ccc(I)cc1Cl"
  GROUP_LABEL: "met"
- COMPOUND: "Cn1ccc2ncnc(Oc3ccc(NC(=O)Nc4cccc(C(F)(F)F)c4)c(Cl)c3)c21"
  GROUP_LABEL: "not met"
- COMPOUND: "CSc1nccc(-c2c(-c3ccc(F)cc3)ncn2CCCN2CCOCC2)n1.Cl"
  GROUP_LABEL: "met"
- COMPOUND: "CCNCC(Cc1ccccc1)NC(=O)c1cc(Br)c(-c2ccnc3[nH]ccc23)s1.Cl.Cl (stereo not drawn)"
  GROUP_LABEL: "met"
- COMPOUND: "C[C@@H](Oc1cc(-n2cnc3ccc(-c4ccncc4)cc32)sc1C(N)=O)c1ccccc1Cl"
  GROUP_LABEL: "met"
- COMPOUND: "Cc1ccc2c(-c3ccnc(Nc4ccc(C(F)(F)F)cc4)n3)cnn2n1"
  GROUP_LABEL: "met"
- COMPOUND: "CN(c1ccccc1CNc1nc(Nc2ccc3c(c2)CC(=O)N3)ncc1C(F)(F)F)S(C)(=O)=O"
  GROUP_LABEL: "met"
- COMPOUND: "CCn1c(-c2nonc2N)nc2cncc(Br)c21"
  GROUP_LABEL: "met"
- COMPOUND: "Cn1ccc2ncnc(Oc3ccc(NC(=O)Nc4cccc(C(F)(F)F)c4)c(F)c3)c21"
  GROUP_LABEL: "not met"
- COMPOUND: "COc1cc2ncn(-c3cc(OCC4CCCCC4)c(C(N)=O)s3)c2cc1OC"
  GROUP_LABEL: "not met"
- COMPOUND: "Cl.Cl.NC[C@H](CC1CCCCC1)NC(=O)c1ccc(-c2ccnc3[nH]ccc23)s1"
  GROUP_LABEL: "met"
- COMPOUND: "Cl.Nc1n[nH]c2cc(-c3ccccn3)ccc12"
  GROUP_LABEL: "met"
- COMPOUND: "NC(=O)c1ccc(-c2cc3ncnc(SCC(=O)O)c3s2)cc1"
  GROUP_LABEL: "not met"
- COMPOUND: "COC(=O)c1cccc(NC(=O)NC2CCN(c3ccnc(Nc4cc(OC)c(OC)c(OC)c4)n3)C2)c1 (stereo not drawn)"
  GROUP_LABEL: "not met"
- COMPOUND: "CNC(=O)c1ccccc1Nc1nc(Nc2cccc(CS(C)(=O)=O)c2)ncc1C.O=CO"
  GROUP_LABEL: "not met"
- COMPOUND: "Cn1ccc2ncnc(Oc3ccc(NC(=O)Nc4cncc(C(F)(F)F)c4)c(Cl)c3)c21"
  GROUP_LABEL: "not met"
